# System: EMT-6 mammary tumors
# method_summary: Biodistribution in EMT-6 BALB/C mice
# Type: in vivo
# applied_conditions: 5 min
endpoint_label: ratio Tumor:lung

molecule	experimental_result
COc1cc2c(cc1OC)CN(CCCCNC(=O)c1cc(C)cc(OC)c1O[11CH3])CC2 [[^11C]10]	0.31
COc1cc2c(cc1OC)CN(CCCCNC(=O)c1cc([125I])cc(OC)c1OC)CC2 [[^125I]6i]	0.15
COc1cc2c(cc1OC)CN(CCNC(=O)c1cc([125I])ccc1OC)CC2 [[^125I]8i]	0.50
COc1cc2c(cc1OC)CN(CCCCNC(=O)c1cc(Br)cc(OC)c1O[11CH3])CC2 [[^11C]6]	0.47
COc1cc2c(cc1OC)CN(CCCCNC(=O)c1cc([76Br])cc(OC)c1OC)CC2 [[^76Br]6]	0.19

---

# method_summary: Biodistribution in EMT-6 BALB/C mice
# Format: in vivo
# applied_conditions: Balb/c, mouse, intravenous; spleen, 2 hour; read-out: % ID per gram spleen

molecule	unit_spec	tissue uptake at 2 h
COc1cc2c(cc1OC)CN(CCCCNC(=O)c1cc([76Br])cc(OC)c1OC)CC2 [[^76Br]6]	%ID/g	0.6

---

# Tested on: EMT-6 mammary tumors
# method_summary: Biodistribution in EMT-6 BALB/C mice
# Format: in vivo
# applied_conditions: lung, 1 hour
% ID per gram lung listing for selected compounds.

compound	test_system	% ID per gram lung / % ID per gram
COc1cc2c(cc1OC)CN(CCNC(=O)c1cc(C)ccc1O[11CH3])CC2 [[^11C]9]	EMT-6 mammary tumors	1.39
COc1cc2c(cc1OC)CN(CCCCNC(=O)c1cc(C)cc(OC)c1O[11CH3])CC2 [[^11C]10]	EMT-6 mammary tumors	1.09
COc1cc2c(cc1OC)CN(CCNC(=O)c1cc([125I])ccc1OC)CC2 [[^125I]8i]	EMT-6 mammary tumors	0.81
COc1cc2c(cc1OC)CN(CCCCNC(=O)c1cc([76Br])cc(OC)c1OC)CC2 [[^76Br]6]	EMT-6 mammary tumors	2.45
COc1cc2c(cc1OC)CN(CCCCNC(=O)c1cc([125I])cc(OC)c1OC)CC2 [[^125I]6i]	EMT-6 mammary tumors	2.12
COc1cc2c(cc1OC)CN(CCCCNC(=O)c1cc(Br)cc(OC)c1O[11CH3])CC2 [[^11C]6]	EMT-6 mammary tumors	0.70

---

# Tested on: EMT-6 mammary tumors
# method_summary: Biodistribution in EMT-6 BALB/C mice
# Type: in vivo
# applied_conditions: 30 min
endpoint_label: ratio Tumor:lung

molecule	experimental_result
COc1cc2c(cc1OC)CN(CCNC(=O)c1cc([125I])ccc1OC)CC2 [[^125I]8i]	0.98
COc1cc2c(cc1OC)CN(CCCCNC(=O)c1cc(C)cc(OC)c1O[11CH3])CC2 [[^11C]10]	1.06
COc1cc2c(cc1OC)CN(CCCCNC(=O)c1cc([125I])cc(OC)c1OC)CC2 [[^125I]6i]	0.82
COc1cc2c(cc1OC)CN(CCCCNC(=O)c1cc([76Br])cc(OC)c1OC)CC2 [[^76Br]6]	0.93
COc1cc2c(cc1OC)CN(CCCCNC(=O)c1cc(Br)cc(OC)c1O[11CH3])CC2 [[^11C]6]	0.69

Each recorded value in this set is attributed to patent US7893266B2.
